Catalogue of molecules with associated log10 MIC
tested on: M. dispar NCTC 10125; test: MIC against Mycoplasma in vitro (Friis broth with agarose); type: cell-based; conditions: 144 h
Would you kindly interpret these values as log10 of MIC expressed in µg/mL?

Inquiry: # get_value(readout='log10 MIC', item= CC(=Cc1nnnn1Cc1ccc([N+](=O)[O-])cc1)CC1OCC(CC2OC2C(C)C(C)O)C(O)C1O (stereo not drawn) )
Reply text: 0.00

Inquiry: One more molecule: CC(=Cc1nc(-c2ccc([N+](=O)[O-])cc2)no1)CC1OCC(CC2OC2C(C)C(C)O)C(O)C1O (stereo not drawn)
Reply text: -1.00

Inquiry: Quick one: CC(=Cc1nnc(-c2ccncc2)o1)CC1OCC(CC2OC2C(C)C(C)O)C(O)C1O (stereo not drawn)
Reply text: -0.60

Inquiry: Try this molecule too: CC(=Cc1nnc(-c2ccc(N(C)C)cc2)o1)CC1OCC(CC2OC2C(C)C(C)O)C(O)C1O (stereo not drawn)
Reply text: -0.30

Inquiry: Ok, now CC(=Cc1nnc(-c2cccc(C#N)c2)o1)CC1OCC(CC2OC2C(C)C(C)O)C(O)C1O (stereo not drawn)
Reply text: -1.30

Inquiry: Likewise for CC(=CC(=O)NN)CC1OCC(CC2OC2C(C)C(C)O)C(O)C1O (stereo not drawn) [Example 9, Monohydrazide A] ?
Reply text: 0.40

###

test system: M. hyopneumoniae MS 16; assay: MIC against Mycoplasma in vitro (Friis broth with agarose); assay type: cell-based; conditions: Mesomycoplasma hyopneumoniae, MS16, 144 h; M. hyopneumoniae MS 16; 6 days at 37° C; read-out: MIC
assay.readout: MIC (µg/mL)
Unit µg/mL implied. Number only.

Record excerpt, results attached:
CC(=Cc1nnc(-c2ccc(S(C)(=O)=O)cc2)o1)CC1OCC(CC2OC2C(C)C(C)O)C(O)C1O (stereo not drawn); 0.1
CC(=Cc1nnc(-c2cccnc2)o1)CC1OCC(CC2OC2C(C)C(C)O)C(O)C1O (stereo not drawn); 1

Inquiry: What value of MIC has been reported for the following compound? CC(=Cc1nc(-c2ccccc2)no1)CC1OCC(CC2OC2C(C)C(C)O)C(O)C1O (stereo not drawn)
Reply text: 5

###

molecules and their reported log10(MIC)
system: M. hyopneumoniae TAM 6N; assay: MIC against Mycoplasma in vitro (Friis broth with agarose); assay type: cell-based; conditions: Mesomycoplasma hyopneumoniae, TAM6N, 144 h; M. hyopneumoniae TAM 6N; 6 days at 37° C; read-out: MIC
A value of 2 here means MIC of 100 in µg/mL, since values are log10.

CSc1ccc(-c2nnc(C=C(C)CC3OCC(CC4OC4C(C)C(C)O)C(O)C3O)o2)cc1 (stereo not shown); 0.40
CC(=Cc1nnc(-c2cccc(C#N)c2)o1)CC1OCC(CC2OC2C(C)C(C)O)C(O)C1O (stereo not shown); -0.60
CC(=Cc1nnc(-c2ccc(S(C)(=O)=O)cc2)o1)CC1OCC(CC2OC2C(C)C(C)O)C(O)C1O (stereo not shown); -0.30
CC(=Cc1noc(-c2ccccc2)n1)CC1OCC(CC2OC2C(C)C(C)O)C(O)C1O (stereo not shown); 0.40
CC(=Cc1nnc(-c2ccco2)o1)CC1OCC(CC2OC2C(C)C(C)O)C(O)C1O (stereo not shown); 1.00
CC(=Cc1nnnn1Cc1ccc([N+](=O)[O-])cc1)CC1OCC(CC2OC2C(C)C(C)O)C(O)C1O (stereo not shown); 0.70

Inquiry: Quick check: log10(MIC) of CC(=Cc1nc(-c2ccc([N+](=O)[O-])cc2)no1)CC1OCC(CC2OC2C(C)C(C)O)C(O)C1O (stereo not shown) ?
Reply text: 0.00

Inquiry: And what about the molecule CC(=Cc1nnc(-c2ccncc2)o1)CC1OCC(CC2OC2C(C)C(C)O)C(O)C1O (stereo not shown) ?
Reply text: 0.40

Inquiry: Also check CC(=Cc1nnc(-c2cccnc2)o1)CC1OCC(CC2OC2C(C)C(C)O)C(O)C1O (stereo not shown)
Reply text: 0.40

Inquiry: Item: CC(=Cc1nnc(-c2ccccc2)o1)CC1OCC(CC2OC2C(C)C(C)O)C(O)C1O (stereo not shown)
Reply text: 0.70

Inquiry: Would you mind doing CC(=Cc1nc(-c2ccccc2)no1)CC1OCC(CC2OC2C(C)C(C)O)C(O)C1O (stereo not shown) as well?
Reply text: 1.00

Values were extracted from patent US4861788A.
